ALT listing for selected compounds.
- Species: Rattus norvegicus
- testDescription: Open TG-GATES - Regimen: Daily Repeat
- Assay type: toxicity, organism-based, Sprague-Dawley
- Parameters: regimen Daily Repeat, gender Male, age 6 weeks
- recordedConditions: in vivo, po, 100 mg/kg, […], tissue Plasma, route gavage, dose level Low, time 7 day
measuredParameter: ALT

- compound: "CC(S)C(=O)NCC(=O)O (centres undefined)"
  recordedResult: "37.2 IU/L"
- compound: "CC(=O)[C@@]1(O)CC[C@H]2[C@@H]3C=C(Cl)C4=CC(=O)CC[C@]4(C)[C@H]3CC[C@@]21C"
  recordedResult: "46.4 IU/L"
- compound: "O=C(O)c1ccccc1Nc1ccccc1"
  recordedResult: "37 IU/L"
- compound: "CCCCNC(=O)NS(=O)(=O)c1ccc(C)cc1 [TOLBUTAMIDE]"
  recordedResult: "43.8 IU/L"

====

- Species: Rattus norvegicus
- testDescription: Open TG-GATES - Regimen: Daily Repeat
- Assay type: toxicity, organism-based, Sprague-Dawley
- Set-up: regimen Daily Repeat, gender Male, age 6 weeks
- recordedConditions: in vivo, po, 0 mg/kg, 72 h, route gavage, dose level Control, time 3 day
TERMINAL_BW listing for selected compounds.
measuredParameter: TERMINAL_BW (g)

- compound: "O=C(O)c1ccccc1Nc1ccccc1 [FENAMIC ACID]"
  measuredParameter: "TERMINAL_BW"
  recordedResult: 237
- compound: "CCCCNC(=O)NS(=O)(=O)c1ccc(C)cc1 [TOLBUTAMIDE]"
  measuredParameter: "TERMINAL_BW"
  recordedResult: 235.2
- compound: "CN(C/C=C/C#CC(C)(C)C)Cc1cccc2ccccc12 [TERBINAFINE]"
  measuredParameter: "TERMINAL_BW"
  recordedResult: 243.5
- compound: "NS(=O)(=O)c1cc(C(=O)O)c(NCc2ccco2)cc1Cl [FUROSEMIDE]"
  measuredParameter: "TERMINAL_BW"
  recordedResult: 240.2
- compound: "CCO [ALCOHOL]"
  measuredParameter: "TERMINAL_BW"
  recordedResult: 232.9
- compound: "O=c1ccc2ccccc2o1 [COUMARIN]"
  measuredParameter: "TERMINAL_BW"
  recordedResult: 197.7
- compound: "CC(=O)[C@@]1(O)CC[C@H]2[C@@H]3C=C(Cl)C4=CC(=O)CC[C@]4(C)[C@H]3CC[C@@]21C [CHLORMADINONE]"
  measuredParameter: "TERMINAL_BW"
  recordedResult: 240.6
- compound: "COc1ccc([C@@H]2Sc3ccccc3N(CCN(C)C)C(=O)[C@@H]2OC(C)=O)cc1 [DILTIAZEM]"
  measuredParameter: "TERMINAL_BW"
  recordedResult: 215.4
- compound: "CCN(CC)C(=S)SSC(=S)N(CC)CC"
  measuredParameter: "TERMINAL_BW"
  recordedResult: 228.6
- compound: "CN(CCOc1ccc(CC2SC(=O)NC2=O)cc1)c1ccccn1.O=C(O)/C=C\\C(=O)O (stereo not drawn) [ROSIGLITAZONE MALEATE]"
  measuredParameter: "TERMINAL_BW"
  recordedResult: 242.8
- compound: "Nc1ccc(Cc2ccc(N)cc2)cc1"
  measuredParameter: "TERMINAL_BW"
  recordedResult: 240.9
- compound: "CC(S)C(=O)NCC(=O)O (stereo not drawn) [TIOPRONIN]"
  measuredParameter: "TERMINAL_BW"
  recordedResult: 222.4
- compound: "CCCCC1C(=O)N(c2ccccc2)N(c2ccccc2)C1=O [PHENYLBUTAZONE]"
  measuredParameter: "TERMINAL_BW"
  recordedResult: 239.7

====

- Species: Rattus norvegicus
- testDescription: Open TG-GATES - Regimen: Daily Repeat
- Type: toxicity, organism-based, Sprague-Dawley
- Parameters: regimen Daily Repeat, gender Male, age 6 weeks
- recordedConditions: in vivo, po, 0 mg/kg, […], tissue Blood, route gavage, dose level Control, time 7 day

- compound: "O=c1ccc2ccccc2o1 [COUMARIN]"
  Ht: "41.6%"
- compound: "CCO [ALCOHOL]"
  Ht: "42.2%"
- compound: "COc1ccc([C@@H]2Sc3ccccc3N(CCN(C)C)C(=O)[C@@H]2OC(C)=O)cc1 [DILTIAZEM]"
  Ht: "41.8%"
- compound: "NS(=O)(=O)c1cc(C(=O)O)c(NCc2ccco2)cc1Cl [FUROSEMIDE]"
  Ht: "39.9%"
- compound: "CCCCNC(=O)NS(=O)(=O)c1ccc(C)cc1 [TOLBUTAMIDE]"
  Ht: "41%"
- compound: "CCCCC1C(=O)N(c2ccccc2)N(c2ccccc2)C1=O [PHENYLBUTAZONE]"
  Ht: "42.1%"
- compound: "CN(CCOc1ccc(CC2SC(=O)NC2=O)cc1)c1ccccn1.O=C(O)/C=C\\C(=O)O (stereo not drawn) [ROSIGLITAZONE MALEATE]"
  Ht: "40.5%"
- compound: "Nc1ccc(Cc2ccc(N)cc2)cc1"
  Ht: "39.5%"
- compound: "CC(S)C(=O)NCC(=O)O (stereo not drawn) [TIOPRONIN]"
  Ht: "40.6%"
- compound: "CC(=O)[C@@]1(O)CC[C@H]2[C@@H]3C=C(Cl)C4=CC(=O)CC[C@]4(C)[C@H]3CC[C@@]21C [CHLORMADINONE]"
  Ht: "41.5%"
- compound: "O=C(O)c1ccccc1Nc1ccccc1 [FENAMIC ACID]"
  Ht: "40.3%"
- compound: "CN(C/C=C/C#CC(C)(C)C)Cc1cccc2ccccc12 [TERBINAFINE]"
  Ht: "41%"
- compound: "CCN(CC)C(=S)SSC(=S)N(CC)CC"
  Ht: "39.2%"

====

Lym listing for selected compounds.
- Organism: Rattus norvegicus
- testDescription: Open TG-GATES - Regimen: Daily Repeat
- Assay type: toxicity, organism-based, Sprague-Dawley
- Design: regimen Daily Repeat, gender Male, age 6 weeks
- recordedConditions: in vivo, po, 300 mg/kg, 72 h, tissue Blood, route gavage, dose level Middle, time 3 day

- compound: "CC(=O)[C@@]1(O)CC[C@H]2[C@@H]3C=C(Cl)C4=CC(=O)CC[C@]4(C)[C@H]3CC[C@@]21C"
  Lym [%]: 76.8
- compound: "CCCCNC(=O)NS(=O)(=O)c1ccc(C)cc1 [TOLBUTAMIDE]"
  Lym [%]: 80
- compound: "O=C(O)c1ccccc1Nc1ccccc1"
  Lym [%]: 74.2
- compound: "CC(S)C(=O)NCC(=O)O (centres undefined)"
  Lym [%]: 78.4

====

- Species: Rattus norvegicus
- testDescription: Open TG-GATES - Regimen: Daily Repeat
- Type: toxicity, organism-based, Sprague-Dawley
- Set-up: regimen Daily Repeat, gender Male, age 6 weeks
- recordedConditions: in vivo, po, 0 mg/kg, […], tissue Plasma, route gavage, dose level Control, time 7 day

- compound: "COc1ccc([C@@H]2Sc3ccccc3N(CCN(C)C)C(=O)[C@@H]2OC(C)=O)cc1"
  RALB / g/dL: 2.8
- compound: "CC(=O)[C@@]1(O)CC[C@H]2[C@@H]3C=C(Cl)C4=CC(=O)CC[C@]4(C)[C@H]3CC[C@@]21C"
  RALB / g/dL: 3.1
- compound: "CCCCNC(=O)NS(=O)(=O)c1ccc(C)cc1 [TOLBUTAMIDE]"
  RALB / g/dL: 2.6
- compound: "CCCCC1C(=O)N(c2ccccc2)N(c2ccccc2)C1=O"
  RALB / g/dL: 3.9
- compound: "CN(CCOc1ccc(CC2SC(=O)NC2=O)cc1)c1ccccn1.O=C(O)/C=C\\C(=O)O (stereo not drawn) [ROSIGLITAZONE MALEATE]"
  RALB / g/dL: 3.8
- compound: "CC(S)C(=O)NCC(=O)O (stereo not drawn)"
  RALB / g/dL: 3
- compound: "O=c1ccc2ccccc2o1"
  RALB / g/dL: 3.9
- compound: "O=C(O)c1ccccc1Nc1ccccc1"
  RALB / g/dL: 2.6
- compound: "CCO"
  RALB / g/dL: 4
- compound: "CN(C/C=C/C#CC(C)(C)C)Cc1cccc2ccccc12"
  RALB / g/dL: 3.5
- compound: "NS(=O)(=O)c1cc(C(=O)O)c(NCc2ccco2)cc1Cl [FUROSEMIDE]"
  RALB / g/dL: 2.7
- compound: "Nc1ccc(Cc2ccc(N)cc2)cc1"
  RALB / g/dL: 2.7
- compound: "CCN(CC)C(=S)SSC(=S)N(CC)CC"
  RALB / g/dL: 3.1

====

- Organism: Rattus norvegicus
- testDescription: Open TG-GATES - Regimen: Single
- Assay type: toxicity, organism-based, Sprague-Dawley
- Parameters: regimen Single, gender Male, age 6 weeks
- recordedConditions: in vivo, po, 0 mg/kg, 3 h, tissue Plasma, route gavage, dose level Control
DBIL listing for selected compounds.

- compound: "CCO"
  measurementUnits: "mg/dL"
  DBIL: 0.02
- compound: "CC(S)C(=O)NCC(=O)O (stereo unspecified)"
  measurementUnits: "mg/dL"
  DBIL: 0.002
- compound: "O=C(O)c1ccccc1Nc1ccccc1"
  measurementUnits: "mg/dL"
  DBIL: 0.008
- compound: "CN(CCOc1ccc(CC2SC(=O)NC2=O)cc1)c1ccccn1.O=C(O)/C=C\\C(=O)O (stereo unspecified) [ROSIGLITAZONE MALEATE]"
  measurementUnits: "mg/dL"
  DBIL: 0.012
- compound: "CCN(CC)C(=S)SSC(=S)N(CC)CC"
  measurementUnits: "mg/dL"
  DBIL: 0
- compound: "CN(C)CCCN1c2ccccc2Sc2ccc(Cl)cc21"
  measurementUnits: "mg/dL"
  DBIL: 0.064
